assay: Stability of cannabinoid and Vitamin E components of Beverage 2 (AB Red) stored at 8° C. and 21-25° C., LCMSMS over 570 days; details: 8° C., 270 days
Class TRUE: Stability of Cannabinoids in AB Red at least 2 µg/mL. Class FALSE: Stability of Cannabinoids in AB Red below 2 µg/mL.

>  <compound>
CCCCCc1cc(O)c2c(c1)OC1(C)CCC3C1C2C3(C)C (stereo not drawn) [CBL, cannabicyclol]

>  <group label>
FALSE

$$$$
>  <compound>
C=C(C)[C@@H]1CCC(C)=C[C@H]1c1c(O)cc(CCCCC)c(C(=O)O)c1O [CBDA, cannabidiolic acid]

>  <group label>
FALSE

$$$$
>  <compound>
CCCCCc1cc(O)c2c(c1)OC(C)(CCC=C(C)C)C=C2 (stereo not drawn) [CBC, cannabichromene]

>  <group label>
FALSE

$$$$
>  <compound>
CCCCCc1cc(O)c(C/C=C(\C)CCC=C(C)C)c(O)c1 [CBG, cannabigerol]

>  <group label>
TRUE

$$$$
>  <compound>
CCCc1cc(O)c2c(c1)OC(C)(C)[C@@H]1CCC(C)=C[C@@H]21 [THCV, delta-9-tetrahydrocannabivarin]

>  <group label>
TRUE

$$$$
>  <compound>
CCCCCc1cc2c(c(O)c1C(=O)O)[C@@H]1C=C(C)CC[C@H]1C(C)(C)O2 [D9 THCA, delta-9-tetrahydrocannabinolic acid]

>  <group label>
FALSE

$$$$
>  <compound>
C=C(C)[C@@H]1CCC(C)=C[C@H]1c1c(O)cc(CCC)cc1O [CBDV, cannabidivarin]

>  <group label>
FALSE

$$$$
>  <compound>
CCCCCc1cc(O)c2c(c1)OC(C)(C)[C@@H]1CCC(C)=C[C@@H]21 [D9 THC, delta-9-tetrahydrocannabinol, reference compound]

>  <group label>
TRUE

$$$$
>  <compound>
CCCCCc1cc(O)c2c(c1)OC(C)(C)c1ccc(C)cc1-2 [CBN, cannabinol]

>  <group label>
TRUE

$$$$
